Just for reference, PubChem BioAssay AID1259407 is where these values come from.

System: CCRIS mutagenicity, Ames/micronucleus/aberration tests
Assay: CCRIS mutagenicity studies
Conditions: Test System: AMES SALMONELLA TYPHIMURIUM; Strain/Indicator: TA98; Metabolic Activation: NONE; Method: STANDARD PLATE
Active and inactive are the calls of the source. The rule behind the calls is not given here.
Please answer using one outcome listed in YES (active), NO (inactive)

Query: Hey, what did the test say about C[Si](C)(C)O[Si](C)(C)O[Si](C)(C)C ?
Response: NO

Query: I'd appreciate the recorded outcome for Clc1cccc(Cl)c1 from this test.
Response: NO

Query: Fill in: this test's call for CNC(=O)ONC(C)=O is ___
Response: YES

Query: Short answer needed: outcome of this test for O=CN(O)c1ccc(Br)cc1 ?
Response: NO

Query: Which result was noted for this molecule in the test: O=[N+]([O-])c1ccc(-c2nc3n(c2[N+](=O)[O-])CCS3)cc1
Response: YES

Query: Recorded test outcome, item O=[N+]([O-])c1ccc2c(Cl)nsc2c1
Response: YES

Query: Could you please tell me the result logged for CC(=O)Nc1ccc(Sc2ccccc2)cc1 in this assay?
Response: NO

Query: Which outcome was entered for the molecule Cc1cc(C(C)(C)C)c(O)c(C(C)(C)C)c1 in this test?
Response: NO

More entries:
Query: // outcome(item) with item = Cc1cccc(C)c1N=Nc1c(O)ccc2ccccc12
Response: NO

Query: Name the outcome recorded for c1cnccn1 in the assay.
Response: NO

Query: Could you please tell me the result logged for CCCCC/C=C/C=C/C=O in this assay?
Response: NO

Query: Identify the outcome logged in this assay for the molecule shown: O=C(CBr)c1oc([N+](=O)[O-])c(Cl)c1Cl
Response: YES

Query: # lookup: test call for CC(=O)N(O)c1ccc(C)cc1
Response: NO

Query: Record lookup: outcome of this test for C/C=C/c1ccc(O)c(OC)c1 ?
Response: NO

###

Tested on: CCRIS mutagenicity, Ames/micronucleus/aberration tests
Test: CCRIS mutagenicity studies
Settings: Test System: AMES SALMONELLA TYPHIMURIUM; Strain/Indicator: TA1537; Metabolic Activation: HAMSTER, LIVER, S-9, AROCLOR 1254 (10%); Method: PREINCUBATION
The source made the active and inactive calls. No rule for the calls is given here.
Write down the outcome that applies. Available outcomes: yes (1) for active, no (0) for inactive

See these solved cases before continuing.
Query: Write down the call the test reported for this molecule. Item: CCOC(=O)OCC
Response: no (0)

Query: # lookup: test call for Nc1ccc2c(c1)C(=O)/C(=N/Nc1ccc(-c3ccc(N/N=C4/C(=O)c5c(N)cc(S(=O)(=O)O)cc5C=C4S(=O)(=O)O)cc3)cc1)C(S(=O)(=O)O)=C2
Response: no (0)

Query: Could you kindly confirm the outcome this assay logged for O=C(CCl)c1ccccc1 ?
Response: no (0)

Query: Per the assay record, what outcome was assigned to C=CCNCC=C ?
Response: no (0)

Query: Write down the call the test reported for this molecule. Item: CC1=NN(c2ccccc2)C(=O)C1
Response: no (0)

Query: # fetch the recorded call for C=CC(=O)O here
Response: no (0)

Query: Can you look up the reported call for CCOc1ccc(N=Nc2ccc(-c3ccc(N=Nc4c(O)ccc5cc(S(=O)(=O)O)cc(S(=O)(=O)O)c45)c(C)c3)cc2C)cc1 for me?
Response: no (0)

Query: Test call for this molecule, please: CCC(Cl)C(Cl)C(Cl)CC(Cl)C(Cl)C(C)Cl (stereo not given)
Response: no (0)

---
Query: Entry Nc1ccc(C(=O)O)cc1 : call = ?
Response: no (0)

Query: Please state the recorded outcome for this molecule: CCCCOC(=O)c1ccccc1C(=O)OC1CCCCC1
Response: no (0)

Query: Assay result, entry C=CC(=O)OCCN(C)C — outcome?
Response: no (0)
